Assembled from different publications: pIC50 for Cathepsin D (Homo sapiens).
pIC50: −log10 of the molar value.
Label Yes when pIC50 is at or above 4; anything below gets No.

[
  {
    "COMPOUND": "COc1cc(Br)c(C(=O)N[C@@H](c2ccccc2)C(O)CN(CCc2ccc3c(c2)OCO3)C(=O)CCN2C(=O)c3ccccc3C2=O)cc1OC (stereo partly drawn)",
    "ASSIGNED CLASS": "Yes"
  },
  {
    "COMPOUND": "C#C[C@H](C)Oc1cnc(C(=O)Nc2ccc(F)c([C@@]3(C)N=C(N)S[C@@]4(C(F)F)C[C@@H]34)c2)c(C)c1",
    "ASSIGNED CLASS": "No"
  },
  {
    "COMPOUND": "CCc1cn2c3c(cc(C(=O)N[C@@H](Cc4ccccc4)[C@H](O)CNC(C)(C)CCCC(C)C)cc13)N(C)S(=O)(=O)CC2",
    "ASSIGNED CLASS": "Yes"
  }
]

**Query** Test whether the compound NC1=N[C@](CF)(c2cc(Nc3nccc4nc(OCc5ncco5)cnc34)ccc2F)[C@@H]2C[C@]2(c2c[nH]nn2)S1 records pIC50 of 4 or higher.
**Result** No

**Query** Would you mind doing NC1=N[C@@](c2cc(NC(=O)c3cnc(CCC#CC4CC4)cn3)ccc2F)(C(F)F)[C@H]2C[C@H]2O1 as well?
**Result** No

**Query** Moving on to C#C[C@H](C)Oc1cnc(C(=O)Nc2cc(F)c(F)c([C@@]3(C)N=C(N)S[C@@]4(CF)C[C@H]43)c2)c(C)n1
**Result** No

**Query** Try the compound C#CCOc1cnc(C(=O)Nc2ccc(F)c([C@@]3(C)N=C(N)S[C@@]4(CF)C[C@H]43)c2)cn1
**Result** No

**Query** Same read-out for CCNc1cc(C(=O)N[C@@H](Cc2ccccc2)[C@H](O)CNC(C)(C)CCCC(C)C)cc(N2CCCCS2(=O)=O)c1 ?
**Result** Yes
